Cited source: PubChem BioAssay AID1216

tested.target: Mannose-6-phosphate isomerase (Homo sapiens) (UniProt P34949)
Sequence (P34949 whole entry, looked up): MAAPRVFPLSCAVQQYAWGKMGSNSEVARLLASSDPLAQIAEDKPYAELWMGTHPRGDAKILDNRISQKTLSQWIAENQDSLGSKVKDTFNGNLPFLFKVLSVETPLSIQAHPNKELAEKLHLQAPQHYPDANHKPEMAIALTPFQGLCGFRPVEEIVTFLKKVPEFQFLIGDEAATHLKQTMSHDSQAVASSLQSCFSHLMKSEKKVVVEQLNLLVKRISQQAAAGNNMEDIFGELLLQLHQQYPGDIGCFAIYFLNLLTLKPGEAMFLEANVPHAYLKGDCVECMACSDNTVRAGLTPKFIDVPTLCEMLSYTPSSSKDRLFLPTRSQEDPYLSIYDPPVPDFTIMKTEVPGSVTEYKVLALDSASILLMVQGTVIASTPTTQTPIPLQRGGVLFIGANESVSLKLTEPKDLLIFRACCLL
assay.notes: MPI activation at elevated mannose 6-phosphate – biochemical, fluorescence intensity, near-saturating mannose 6-phosphate, primary screen (AID 1216)
test.context: coupled PMI enzyme assay, resazurin fluorescence, 20 min; at 20 µM; stronger effect = higher value; 1 = untreated enzyme, 0 = substrate-free blank
Hit rate of the full screen: of about 190,000 compounds, about 660 (0.35%) were called active. What follows is part of a selection rich in actives, with near analogues and random picks from the rest.
measured.property: activation factor
Answer with a number only.

Report activation factor from Mannose-6-phosphate isomerase (Homo sapiens) (UniProt P34949) testing of COc1ccc(C2CC(c3cccs3)=NN2C(=O)CSc2nnc(N)s2)cc1OC (stereo not drawn)
1

Report activation factor from Mannose-6-phosphate isomerase (Homo sapiens) (UniProt P34949) testing of Cc1ccnc(NC(=O)CCC(=O)N(CC(=O)NCCc2ccccc2)Cc2cccs2)c1
1

Report activation factor from Mannose-6-phosphate isomerase (Homo sapiens) (UniProt P34949) testing of Cc1ccc(Cl)cc1NC(=O)c1ccccn1
1

Report activation factor from Mannose-6-phosphate isomerase (Homo sapiens) (UniProt P34949) testing of Cc1ccc(/C(N)=N/OC(=O)COc2ccc(Cl)c(C)c2)cc1
1

Report activation factor from Mannose-6-phosphate isomerase (Homo sapiens) (UniProt P34949) testing of N/C(=N\OS(=O)(=O)c1cccc([N+](=O)[O-])c1)c1ccncc1
1

Report activation factor from Mannose-6-phosphate isomerase (Homo sapiens) (UniProt P34949) testing of C=CCNC(=O)c1ccccc1NC(=O)c1ccc(Cl)c(S(=O)(=O)Nc2cccc(C)c2C)c1
1

Report activation factor from Mannose-6-phosphate isomerase (Homo sapiens) (UniProt P34949) testing of O=c1[nH]cnc2c1c(-c1ccccc1)cn2-c1ccc(F)cc1
1

Report activation factor from Mannose-6-phosphate isomerase (Homo sapiens) (UniProt P34949) testing of CC(C)C(=O)Nc1ccc2oc(=O)ccc2c1
1

Report activation factor from Mannose-6-phosphate isomerase (Homo sapiens) (UniProt P34949) testing of Cc1ccc(N2C(=O)C3CC3C2=O)cc1 (stereo not drawn)
1

Report activation factor from Mannose-6-phosphate isomerase (Homo sapiens) (UniProt P34949) testing of CCOC(=O)C1=C(C)NC(=O)NC1c1ccccc1 (stereo not drawn)
1

Report activation factor from Mannose-6-phosphate isomerase (Homo sapiens) (UniProt P34949) testing of COc1ccc(-c2nn(-c3ccccc3)cc2CN2CCCO2)c(F)c1
1

Report activation factor from Mannose-6-phosphate isomerase (Homo sapiens) (UniProt P34949) testing of COc1ccc(/C=N/N=C2/C(=O)Nc3ccccc32)cc1O
1

Report activation factor from Mannose-6-phosphate isomerase (Homo sapiens) (UniProt P34949) testing of Cc1nn(-c2ccc([N+](=O)[O-])cc2)c(N)c1-c1ccccc1
1
